src = patent US8008547B2

# protocol_summary: Standard protocol for determination of kcat and KM (continuous spectrophotometric assay, Acetyl CoA hydrolysis at 235 nm)
# Format: biochemical
# setup_conditions: purified protein; about 23° C.; 20 mM HEPES pH 6.8, 10% ethylene glycol, 0.2 mM acetyl CoA
Kcat values, listed per item
reported_metric: Kcat (s⁻¹)

molecule	number
SEQ ID NO: 481: GAT polypeptide (protein, 1_4D6, GAT polypeptide) MLEVKPINAEDTYELRHRILRPNQPIEACMYETDLLRGSFHLGGFYRGQLISIASFHKAEHSDLEGQKQYQLRGMATLEGYREQKAGSTLIRHAEQILRKRGADMLWCNARTSAAGYYKRLGFSEQGEVFETPPVGPHILMYKRLT	2.28
SEQ ID NO: 379: GAT polypeptide (protein, 4C_8C9, GAT polypeptide) MIEVKPINAEDTYEIRHRILRPNQPLEACMYETDLLRGAFHLGGYYRGKLISIASFHQAEHPELEGQKQYQLRGMATLEGYREQKAGSTLIRHAEELLRKKGADLLWCNARTSASGYYEKLGFSEQGEVYDIPPIGPHILMYKKLT	0.15
SEQ ID NO: 444: GAT polypeptide (protein, 0_5D11, GAT polypeptide) MIEVKPINAEDTYELRHRILRPNQPIEACMYESDLLRGAFHLGGFYRGKLISIASFHQAEHSDLQGQKQYQLRGMATLEGYREQKAGSTLIRHAEQLLRKRGADLLWCNARTSASGYYKRLGFSEQGEVFDTPPVGPHILMYKRLT	3.73
SEQ ID NO: 457: GAT polypeptide (protein, 10_4H4, GAT polypeptide) MLEVKPINAEDTYELRHKILRPNQPLEVCMYETDLLRGAFHLGGFYRGKLISIASFHQAEHSELQGQKQYQLRGMATLEGYREQKAGSSLIKHAEEILRKRGADLLWCNARTSASGYYKKLGFSEQGEVFDTPPVGPHILMYKRIT	1.9727
SEQ ID NO: 305: GAT polypeptide (protein, 13_9F6, GAT polypeptide) MIEVKPINAEDTYEIRHRILRPNQPLEACKYETDLLGGTFHLGGYYRGKLISIASFHQAEHPELEGQKQYQLRGMATLEEYREQKAGSTLIRHAEELLRKKGADLLWCNARTSASGYYKKLGFSEQGEVYDIPPVGPHILMYKKLT	0.983
SEQ ID NO: 487: GAT polypeptide (protein, 3_14F6, GAT polypeptide) MLEVKPINAEDTYELRHRILRPNQPIEACMYESDLLRGAFHLGGFYRGKLISIASFHQAEHSELQGQKQYQLRGMATLEGYREQKAGSSLIKHAEEILRKRGADLLWCNARTSASGYYKKLGFSEQGEIFETPPVGPHILMYKRLT	3.1405
